system: 439559-082-T-J2-PDC spheroid viability; assay: Anticancer human tumor 439559-082-T-J2-PDC patient-derived colon adenocarcinoma cell line growth inhibition [POLQ]; settings: second compound 10 µM; first compound 0.1 µM; stronger effect = lower value; spheroids with HUVEC and MSC

molecule	tested-on	viability, T/C / %
CCc1cc2c(N3CCc4c(cc(Cn5ccnc5)cc4-c4cn(C)nc4C(F)(F)F)C3=O)ccnc2c(OC)n1 + Nc1ccc(C#CCN(C(=O)Cc2ncc(C(F)(F)F)cc2C(F)(F)F)c2ccc(F)cc2)nn1	439559-082-T-J2-PDC spheroid viability	91.8
C#Cc1c(F)ccc2cc(O)cc(-c3ncc4c(N5CC6CCC(C5)N6)nc(OCC56CCCN5CC(F)C6)nc4c3F)c12 (stereo not drawn) + Cc1cccc(N(C)C(=O)C2C(O)CCN2c2nc(C)cc(C(F)(F)F)c2C#N)c1	439559-082-T-J2-PDC spheroid viability	69.1
CCc1cc2c(N3CCc4c(cc(Cn5ccnc5)cc4-c4cn(C)nc4C(F)(F)F)C3=O)cc(C)nc2c(OC)n1 + Nc1ccc(C#CCN(C(=O)Cc2ncc(C(F)(F)F)cc2C(F)(F)F)c2ccc(F)cc2)nn1	439559-082-T-J2-PDC spheroid viability	95.3

----------
System: 439559-082-T-J2-PDC spheroid viability
Assay: Anticancer human tumor 439559-082-T-J2-PDC cell line growth inhibition [POLQ];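 also: spheroids exposed to compounds for seven days before readout; 100% = DMSO vehicle control viability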
Details: second compound 1 µM; first compound 1 µM; stronger effect = lower value; spheroids with HUVEC and MSC
Procedure: Multicellular complex tumor spheroid response to Polymerase (POL) inhibitors (novobiocin, ART-558, RP6685) in combination with a variety of drugs and investigational agents in selected tumor cell lines The POL inhibitors (novobiocin, ART-558, and RP6685) were evaluated both individually and in combination with standard of care and investigational anticancer small molecules within a complex spheroid model of solid tumors. . […]
Under this convention, fulfilled denotes viability, T/C strictly below 40% and not fulfilled denotes viability, T/C at or above 40%.

molecule	cat
CC(C)n1c(=O)n(C)c2cnc3cc(F)c(-c4ccc(OCCCN5CCCCC5)nc4)cc3c21 + Nc1ccc(C#CCN(C(=O)Cc2ncc(C(F)(F)F)cc2C(F)(F)F)c2ccc(F)cc2)nn1	not fulfilled
C#Cc1c(F)ccc2cc(O)cc(-c3ncc4c(N5CC6CCC(C5)N6)nc(OCC56CCCN5CC(F)C6)nc4c3F)c12 (stereo not given) + COC1C(OC(N)=O)C(O)C(Oc2ccc3c(O)c(NC(=O)c4ccc(O)c(CC=C(C)C)c4)c(=O)oc3c2C)OC1(C)C	not fulfilled
COc1ccc([C@@H](O)c2cc(-c3ncnc4cc(N5CCOCC5)ccc34)c(F)cc2Cl)nn1 + Nc1ccc(C#CCN(C(=O)Cc2ncc(C(F)(F)F)cc2C(F)(F)F)c2ccc(F)cc2)nn1	not fulfilled
Nc1ccn(C2OC(CO)C(O)C2(F)F)c(=O)n1 (stereo not given) + Nc1ccc(C#CCN(C(=O)Cc2ncc(C(F)(F)F)cc2C(F)(F)F)c2ccc(F)cc2)nn1	fulfilled
COc1cccc(OCCCN)c1-c1cc(Nc2cnc(C#N)cn2)n[nH]1 + Nc1ccc(C#CCN(C(=O)Cc2ncc(C(F)(F)F)cc2C(F)(F)F)c2ccc(F)cc2)nn1	fulfilled

----------
system: 439559-082-T-J2-PDC spheroid viability; experiment: Anticancer human tumor 439559-082-T-J2-PDC cell line growth inhibition [POLQ]; details: second compound 3.16 µM; first compound 0.316 µM; stronger effect = lower value; spheroids with HUVEC and MSC;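 also: spheroids exposed to compounds for seven days before readout; 100% = DMSO vehicle control viability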

molecule	viability, T/C [%]
CNCc1ccc(-c2[nH]c3cc(F)cc4c3c2CCNC4=O)cc1 + COC1C(OC(N)=O)C(O)C(Oc2ccc3c(O)c(NC(=O)c4ccc(O)c(CC=C(C)C)c4)c(=O)oc3c2C)OC1(C)C	97.4
COc1cccc(OCCCN)c1-c1cc(Nc2cnc(C#N)cn2)n[nH]1 + Nc1ccc(C#CCN(C(=O)Cc2ncc(C(F)(F)F)cc2C(F)(F)F)c2ccc(F)cc2)nn1	41.6
CC1COCCN1c1cc(C2(O)CC3CCC(C2)O3)c2cnn(-c3ccn[nH]3)c2n1 (stereo unspecified) + Nc1ccc(C#CCN(C(=O)Cc2ncc(C(F)(F)F)cc2C(F)(F)F)c2ccc(F)cc2)nn1	82.3
CCc1cc2c(N3CCc4c(cc(Cn5ccnc5)cc4-c4cn(C)nc4C(F)(F)F)C3=O)cc(C)nc2c(OC)n1 + Nc1ccc(C#CCN(C(=O)Cc2ncc(C(F)(F)F)cc2C(F)(F)F)c2ccc(F)cc2)nn1	85.9
CC(C)n1c(=O)n(C)c2cnc3cc(F)c(-c4ccc(OCCCN5CCCCC5)nc4)cc3c21 + Cc1cccc(N(C)C(=O)C2C(O)CCN2c2nc(C)cc(C(F)(F)F)c2C#N)c1	96.9
C=CC(=O)N1CCN(c2nc(=O)n(-c3c(C)ccnc3C(C)C)c3nc(-c4c(O)cccc4F)c(F)cc23)C(C)C1 (stereo unspecified) + Cc1cccc(N(C)C(=O)C2C(O)CCN2c2nc(C)cc(C(F)(F)F)c2C#N)c1	92.4
O=C(Nc1ccc(O)c(NS(=O)(=O)c2ccc(F)cc2)c1)c1ccc(-c2ccccc2)cc1 + COC1C(OC(N)=O)C(O)C(Oc2ccc3c(O)c(NC(=O)c4ccc(O)c(CC=C(C)C)c4)c(=O)oc3c2C)OC1(C)C	92.3
O=C(c1cc(Cc2n[nH]c(=O)c3ccccc23)ccc1F)N1CCN(C(=O)C2CC2)CC1 + COC1C(OC(N)=O)C(O)C(Oc2ccc3c(O)c(NC(=O)c4ccc(O)c(CC=C(C)C)c4)c(=O)oc3c2C)OC1(C)C	94.9
COc1cc2cc(C(=O)CCC(=O)O)sc2cc1OC + Cc1cccc(N(C)C(=O)C2C(O)CCN2c2nc(C)cc(C(F)(F)F)c2C#N)c1	105
CCc1c2c(nc3ccc(O)cc13)-c1cc3c(c(=O)n1C2)COC(=O)[C@]3(O)CC + COC1C(OC(N)=O)C(O)C(Oc2ccc3c(O)c(NC(=O)c4ccc(O)c(CC=C(C)C)c4)c(=O)oc3c2C)OC1(C)C	52.7
COc1cccc2c1C(=O)c1c(O)c3c(c(O)c1C2=O)CC(O)(C(=O)CO)CC3OC1CC(N)C(O)C(C)O1 (stereo unspecified) + COC1C(OC(N)=O)C(O)C(Oc2ccc3c(O)c(NC(=O)c4ccc(O)c(CC=C(C)C)c4)c(=O)oc3c2C)OC1(C)C	85.2

----------
# viability, T/C listing for each entry below
tested on: 439559-082-T-J2-PDC spheroid viability; assay: Anticancer human tumor 439559-082-T-J2-PDC cell line growth inhibition [POLQ]; conditions: second compound 0.0316 µM; first compound 3.16 µM; stronger effect = lower value; spheroids with HUVEC and MSC;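 also: spheroids exposed to compounds for seven days before readout; 100% = DMSO vehicle control viability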

molecule	viability, T/C [%]
CC1COCCN1c1cc(C2(S(C)(=N)=O)CC2)nc(-c2ccnc3[nH]ccc23)n1 (centres undefined) + Nc1ccc(C#CCN(C(=O)Cc2ncc(C(F)(F)F)cc2C(F)(F)F)c2ccc(F)cc2)nn1	89
O=c1[nH]cc(F)c(=O)[nH]1 + Nc1ccc(C#CCN(C(=O)Cc2ncc(C(F)(F)F)cc2C(F)(F)F)c2ccc(F)cc2)nn1	90.2
COc1ccc([C@@H](O)c2cc(-c3ncnc4cc(N5CCOCC5)ccc34)c(F)cc2Cl)nn1 + COC1C(OC(N)=O)C(O)C(Oc2ccc3c(O)c(NC(=O)c4ccc(O)c(CC=C(C)C)c4)c(=O)oc3c2C)OC1(C)C	90.7
CCc1cc2c(N3CCc4c(cc(Cn5ccnc5)cc4-c4cn(C)nc4C(F)(F)F)C3=O)ccnc2c(OC)n1 + COC1C(OC(N)=O)C(O)C(Oc2ccc3c(O)c(NC(=O)c4ccc(O)c(CC=C(C)C)c4)c(=O)oc3c2C)OC1(C)C	91.6
